system: biotinylated human plasma Kallikrein (Homo sapiens)
Sequence (P03952 20-638): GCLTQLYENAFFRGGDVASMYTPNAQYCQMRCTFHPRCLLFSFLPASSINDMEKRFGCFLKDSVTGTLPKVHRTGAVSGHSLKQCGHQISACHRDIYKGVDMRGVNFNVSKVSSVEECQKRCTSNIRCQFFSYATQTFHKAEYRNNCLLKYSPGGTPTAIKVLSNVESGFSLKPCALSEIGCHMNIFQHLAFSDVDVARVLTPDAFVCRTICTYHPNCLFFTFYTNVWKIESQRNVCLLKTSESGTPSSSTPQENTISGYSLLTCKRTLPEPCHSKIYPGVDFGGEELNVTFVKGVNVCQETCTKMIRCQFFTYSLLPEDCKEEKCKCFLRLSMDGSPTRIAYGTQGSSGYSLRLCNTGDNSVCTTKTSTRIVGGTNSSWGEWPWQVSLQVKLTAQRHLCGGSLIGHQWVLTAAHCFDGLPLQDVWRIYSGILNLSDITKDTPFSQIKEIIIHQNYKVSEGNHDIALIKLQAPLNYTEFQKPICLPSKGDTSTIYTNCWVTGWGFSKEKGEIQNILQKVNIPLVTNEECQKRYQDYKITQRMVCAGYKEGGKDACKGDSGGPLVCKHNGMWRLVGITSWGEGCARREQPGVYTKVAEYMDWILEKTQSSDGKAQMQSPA
assay protocol: Phage binding assay of individual clones, randomisation of peptide domains
measurement setup: WPAR domain fixed, positions 1, 6, 7, 8, 9 & 10 randomised; top 50
# note: exactly 20 is not below, so it is class 0; use class 1 for Rank (sequences ranked according to Kallikrein binding) strictly under it

# substance, label value
records = [
    ("SEQ ID NO: 135 (CQWPARCMHQELC; Synthetic sequence Kallikrein binder containing a WPAR motif)", "class 0"),
    ("SEQ ID NO: 131 (CQWPARCMHQDMC; Synthetic sequence Kallikrein binder containing a WPAR motif)", "class 1"),
    ("SEQ ID NO: 159 (CRWPARCTHTDLC; Synthetic sequence Kallikrein binder containing a WPAR motif)", "class 0"),
    ("SEQ ID NO: 125 (CAWPARCLHDDLC; Synthetic sequence Kallikrein binder containing a WPAR motif)", "class 1"),
    ("SEQ ID NO: 151 (CAWPARCLHQDWC; Synthetic sequence Kallikrein binder containing a WPAR motif)", "class 0"),
    ("SEQ ID NO: 115 (CNWPARCTHQDLC; Synthetic sequence Kallikrein binder containing a WPAR motif)", "class 1"),
    ("SEQ ID NO: 160 (CTWPARCTHQAFC; Synthetic sequence Kallikrein binder containing a WPAR motif)", "class 0"),
    ("SEQ ID NO: 150 (CAWPARCLHADMC; Synthetic sequence Kallikrein binder containing a WPAR motif)", "class 0"),
    ("SEQ ID NO: 145 (CAWPARCMHDDLC; Synthetic sequence Kallikrein binder containing a WPAR motif)", "class 0"),
    ("SEQ ID NO: 121 (CQWPARCLHTDLC; Synthetic sequence Kallikrein binder containing a WPAR motif)", "class 1"),
    ("SEQ ID NO: 146 (CSWPARCLHTELC; Synthetic sequence Kallikrein binder containing a WPAR motif)", "class 0"),
    ("SEQ ID NO: 130 (CAWPARCTHADLC; Synthetic sequence Kallikrein binder containing a WPAR motif)", "class 1"),
    ("SEQ ID NO: 119 (CSWPARCTHDDLC; Synthetic sequence Kallikrein binder containing a WPAR motif)", "class 1"),
]

* * *

system: Biotinylated hPK (Homo sapiens)
Construct: IHPKA, from human plasma; purchased Innovative Research, Novi, MI, USA IHPKA; host or cells: human plasma
Sequence (P03952 20-638): as above
assay protocol: Phage selections, abundance of sequences in selection outputs
Assay type: binding
measurement setup: randomised WPAR motif at positions 2, 3, 4 & 5 within the 06-34-03 sequence
measure: Frequency (relative abundance in the total selection outputs)

# substance, value measured
measured = [
    ("SEQ ID NO: 86 (CSWPFRCTHQDLC; Synthetic sequence Kallikrein binder identified from selections using a randomised WPAR motif at positions 2, 3, 4 & 5 within the 06-34-03 sequence of PCT/EP2012/069898 (SEQ ID NO 58))", 7),
    ("SEQ ID NO: 109 (CSFMYKCTHQDLC; Synthetic sequence Kallikrein binder identified from selections using a randomised WPAR motif at positions 2, 3, 4 & 5 within the 06-34-03 sequence of PCT/EP2012/069898 (SEQ ID NO 58))", 1),
    ("SEQ ID NO: 93 (CSYPFRCTHQDLC; Synthetic sequence Kallikrein binder identified from selections using a randomised WPAR motif at positions 2, 3, 4 & 5 within the 06-34-03 sequence of PCT/EP2012/069898 (SEQ ID NO 58))", 1),
    ("SEQ ID NO: 108 (CSWSYRCTHQDLC; Synthetic sequence Kallikrein binder identified from selections using a randomised WPAR motif at positions 2, 3, 4 & 5 within the 06-34-03 sequence of PCT/EP2012/069898 (SEQ ID NO 58))", 1),
    ("SEQ ID NO: 98 (CSYPYRCTHQDLC; Synthetic sequence Kallikrein binder identified from selections using a randomised WPAR motif at positions 2, 3, 4 & 5 within the 06-34-03 sequence of PCT/EP2012/069898 (SEQ ID NO 58))", 2),
    ("SEQ ID NO: 83 (CRFPFKCTHQDLC; Synthetic sequence Kallikrein binder identified from selections using a randomised WPAR motif at positions 2, 3, 4 & 5 within the 06-34-03 sequence of PCT/EP2012/069898 (SEQ ID NO 58))", 1),
    ("SEQ ID NO: 99 (CSWWARCTHQDLC; Synthetic sequence Kallikrein binder identified from selections using a randomised WPAR motif at positions 2, 3, 4 & 5 within the 06-34-03 sequence of PCT/EP2012/069898 (SEQ ID NO 58))", 1),
]
